The origin of these recorded values is PubChem BioAssay (NCI).

I'd appreciate it if you could supply TGI values for the items below.
- Test system: SF-295 CNS
- protocol.text: NCI tumour cell line growth inhibition, 48 h

Examples with their reported TGI follow.
O=C1CCc2c(sc3[nH]c(=S)n(Cc4ccc(Cl)cc4)c(=O)c23)C1 = 4.68 µM
CCN(CC)C(=O)C(C)n1cc(C)c(=O)[nH]c1=O (stereo unspecified) = > 100 µM
C[C@@H]1CC[C@@H]2[C@@H](C1)O[C@@H]([C@H](C)OCc1ccccc1)SC2(C)C = 34.5 µM
O=C1c2ccccc2S(=O)(=O)c2cc(-c3nn[nH]n3)ccc21 = > 100 µM
CCOC(=O)C(SCCO)C(C(=O)OCC)n1ccc(=O)[nH]c1=O (stereo unspecified) = > 100 µM
O=c1c2cc(Cl)ccc2sc2cccc(Cl)c12 = > 100 µM

Can you give me TGI for all of these, one by one?
1. C=CC(Cl)(CBr)CCC(Br)C(C)(C)Cl (stereo unspecified)
2. O=C1CC(c2ccccc2)n2cccc21 (stereo unspecified)
3. CCN1CCC(O)(c2ccc(Cl)cc2)C(C(=O)c2ccc(Cl)cc2)C1 (stereo unspecified)
4. CC(=O)C1CC[C@@H]2[C@H](CC[C@]3(C)[C@@H](O)CC[C@@H]23)[C@H]1C(=O)O (stereo partly specified)
5. Cc1cccc(C)c1NC(=O)C(=O)Nn1c(NN)nc2ccccc2c1=O

1. 28.8 µM
2. > 100 µM
3. > 100 µM
4. > 100 µM
5. > 100 µM

----------
- Test system: SNB-19 CNS
- protocol.text: NCI tumour cell line growth inhibition, 48 h; in the data active means GI50 below about 0.43 µM; inactive means the rest
Respond only with the outcome that fits, drawn from T = active, F = inactive

Example entries begin here.
Cn1cc(-c2ccc(-c3ccc(C4=NC5(CC5)C(=O)N4C[C@@H]4CCN(C(=O)C5CC5)C4)cc3)cc2)cn1 = F
COC(C)(C)C/C=C/C(C)=C/C=C/C(C)=C\C=C\C(C)=C\C=C\C=C(C)\C=C\C=C(C)\C=C\C=C(C)\C=C\CC(C)(C)OC = F

Could you please tell me the result logged for Cc1cnc(C(=O)NNc2nc3sc4c(c3c(=O)n2C)C(C)CCC4)cn1 (centres undefined) in this assay? T

Could you please tell me the result logged for `COc1ccc(-c2ccc(-c3ccc(C(=N)N)o3)o2)cc1` in this assay? F

----------
I'd appreciate it if you could supply GI50 values for the items below.
- Test system: SNB-75 CNS
- protocol.text: NCI tumour cell line growth inhibition, 48 h

Examples with their reported GI50 follow.
Cc1cnc(C(=O)NNc2nc3sc4c(c3c(=O)n2C)C(C)CCC4)cn1 (stereo not given) = 560 nM
COc1ccc(-c2ccc(-c3ccc(C(=N)N)o3)o2)cc1 = 1470 nM
Cc1ccc(Cl)cc1NC(=O)c1sc2nc3c(cc2c1N)C(=O)CCC3 = 4100 nM
C=C1CC2(OC1=O)C(=O)Nc1ccccc12 (stereo not given) = 11000 nM
COc1cc(C2CC(c3ccc(Nc4ccnc5cc(Cl)ccc45)cc3)=NN2c2ccc(Cl)cc2)cc(OC)c1OC (stereo not given) = 1110 nM

Can you give me GI50 for all of these, one by one?
1. COC(C)(C)C/C=C/C(C)=C/C=C/C(C)=C\C=C\C(C)=C\C=C\C=C(C)\C=C\C=C(C)\C=C\C=C(C)\C=C\CC(C)(C)OC
2. CCN(CC)c1ccc(C(=O)c2ccc(N(CC)CC)cc2)cc1
3. COc1cc(Nc2ncc(F)c(Nc3ccc4c(n3)N(COP(=O)(O)O)C(=O)C(C)(C)O4)n2)cc(OC)c1OC

1: > 150 µg/mL; 2: 458 nM; 3: 319 nM

Can you give me GI50 for all of these, one by one?
1. Cn1cc(-c2ccc(-c3ccc(C4=NC5(CC5)C(=O)N4C[C@@H]4CCN(C(=O)C5CC5)C4)cc3)cc2)cn1
2. CCCCCCCCCCCCC(O)[C@H]1CC[C@H](C(O)CCCCCC(=O)CCCCC2CC(C(C)=O)C(=O)O2)O1 (stereo not given in full)

1: 20000 nM; 2: 7110 nM
